- System tested: T1, human GIP receptor (human) (UniProt P48546)
- T1 sequence (looked up): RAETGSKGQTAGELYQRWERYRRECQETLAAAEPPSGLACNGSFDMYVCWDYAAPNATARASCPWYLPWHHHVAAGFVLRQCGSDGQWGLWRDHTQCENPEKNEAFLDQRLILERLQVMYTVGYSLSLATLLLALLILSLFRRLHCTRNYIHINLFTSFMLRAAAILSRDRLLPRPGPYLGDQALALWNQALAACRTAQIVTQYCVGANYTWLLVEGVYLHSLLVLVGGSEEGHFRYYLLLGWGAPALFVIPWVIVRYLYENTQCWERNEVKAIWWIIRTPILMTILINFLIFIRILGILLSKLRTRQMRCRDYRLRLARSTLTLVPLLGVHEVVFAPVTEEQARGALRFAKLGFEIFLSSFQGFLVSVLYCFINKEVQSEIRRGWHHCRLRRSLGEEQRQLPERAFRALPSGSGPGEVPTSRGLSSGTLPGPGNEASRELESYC
- Method summary: cell-based or functional assay
This listing pairs binders with measured cAMP EC50.
Give your result in nM as a bare value.

Would you please look over these solved cases?
[
  {
    "Binder": "IP392 (Fc fusion) YSEGTFISDYSIAMDKIHQQDFVNWLLAQKGAANDWKHNITQGGGGSGGGGSGGGGSGGGGSGGGGSGGGGSACPPC",
    "Test result": 0.0026
  },
  {
    "Binder": "IP309 (Fc fusion) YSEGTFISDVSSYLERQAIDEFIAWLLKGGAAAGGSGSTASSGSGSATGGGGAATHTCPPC",
    "Test result": 0.086
  },
  {
    "Binder": "IP402 (Fc fusion) YSEGTFISDYSIAMDKIHQQDFVNWLLAQKGSGGGGSGGGGSGGGGSGGGGSGGGGSGGGGSGGGGSACPPC",
    "Test result": 0.038
  },
  {
    "Binder": "IP312 (Fc fusion) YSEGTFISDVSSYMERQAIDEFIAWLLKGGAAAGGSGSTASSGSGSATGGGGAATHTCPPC",
    "Test result": 0.048
  },
  {
    "Binder": "IP385 (Fc fusion) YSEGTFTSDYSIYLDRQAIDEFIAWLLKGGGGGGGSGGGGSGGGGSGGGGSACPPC",
    "Test result": 0.012
  }
]

Input: Fill in: cAMP EC50 of IP348 (Fc fusion) YSEGTFTSDYSKLLERQAIDEFIASLLKGGGGGGGSGGGGSGGGGSGGGGSGGGGSGGGGSA is ___
Output: 0.011

Input: Same thing, different binder: IP226 (Fc fusion) YSEGTFTSDVSKLLERQAIDEFIAWLLKGGAAAGGSGSTASSGSGSATGGGGAATHTCPPCPAPEF
Output: 0.025

Input: Same thing, different binder: IP369 (Fc fusion) YSEGTFTSDYSKLLERQAIDEFIAHLLKGGGGGGGSGGGGSGGGGSGGGGSGGGGSGGGGSA
Output: 0.0089
